Target: inactivated state of Bruton's Tyrosine Kinase (Homo sapiens (Human))
Test: Bruton's Tyrosine Kinase (BTK) Inhibition TR-FRET competition assay
Conditions: Kinase Tracer 178, incubated 18-24 h at 14° C.
pIC50: −log10 of the molar value.
Label YES when pIC50 >= 7; otherwise NO.

{"compound": "Nc1c(C(=O)c2cc3ccccc3[nH]2)cnn1-c1ccc(Oc2ccc(F)c(F)c2)cc1 [Compound I-6]", "answer.label": "NO"}
{"compound": "Cc1cc(Oc2cccc(F)c2F)ccc1-n1ncc(C(=O)c2nc3ccccc3[nH]2)c1N [Compound I-18]", "answer.label": "YES"}

Exercise: Could you tell me if the measured pIC50 of Cc1cc(Oc2cccc(F)c2F)ccc1-n1ncc(C(=O)c2cc3ccccc3[nH]2)c1N [Compound I-14] reaches 7 or more?
Key: YES

Exercise: Try this compound next: Nc1c(C(=O)c2cc3ccc(CN4CCOCC4)cc3[nH]2)cnn1-c1ccc(Oc2ccccc2)cc1 [Compound I-19]
Key: YES

Exercise: Proceed to N#Cc1cccc(Oc2ccc(-n3ncc(C(=O)c4cc5ccc(CN6CCOCC6)cc5[nH]4)c3N)c(Cl)c2)c1 [Compound I-20]
Key: YES

====

Consider the following compounds; for each one, report its IC50.
Target: inactivated state of Bruton's Tyrosine Kinase (Homo sapiens (Human), UniProt Q06187)
Sequence (Q06187 whole entry): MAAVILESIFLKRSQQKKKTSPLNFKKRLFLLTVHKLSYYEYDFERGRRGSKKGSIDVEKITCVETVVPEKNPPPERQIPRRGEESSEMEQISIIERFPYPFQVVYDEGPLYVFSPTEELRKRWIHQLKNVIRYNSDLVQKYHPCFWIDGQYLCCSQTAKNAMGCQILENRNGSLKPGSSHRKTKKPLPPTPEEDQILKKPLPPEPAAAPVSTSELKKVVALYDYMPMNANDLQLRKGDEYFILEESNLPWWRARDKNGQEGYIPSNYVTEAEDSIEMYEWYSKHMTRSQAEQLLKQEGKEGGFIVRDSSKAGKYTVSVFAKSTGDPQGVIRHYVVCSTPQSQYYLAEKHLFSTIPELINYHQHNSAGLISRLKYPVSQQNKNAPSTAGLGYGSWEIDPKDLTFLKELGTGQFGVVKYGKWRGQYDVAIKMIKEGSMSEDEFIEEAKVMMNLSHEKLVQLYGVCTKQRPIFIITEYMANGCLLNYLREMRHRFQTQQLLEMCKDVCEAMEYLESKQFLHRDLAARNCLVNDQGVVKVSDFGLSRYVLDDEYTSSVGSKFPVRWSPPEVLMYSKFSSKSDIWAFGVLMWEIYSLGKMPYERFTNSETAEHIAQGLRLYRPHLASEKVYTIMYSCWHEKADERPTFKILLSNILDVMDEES
Assay: Bruton's Tyrosine Kinase (BTK) Inhibition TR-FRET competition assay
Conditions: Kinase Tracer 178, incubated 18-24 h at 14° C.
Give bare numbers, in nM.

Use these answered entries as a reference point.
{"compound": "N#Cc1cccc(Oc2ccc(-n3ncc(C(=O)c4cc5ccccc5[nH]4)c3N)c(Cl)c2)c1 [Compound I-16]", "measured.number": 82}
{"compound": "Nc1c(C(=O)c2cc3ccccc3[nH]2)cnn1-c1ccc(Oc2ccccc2)cc1O [Compound I-10]", "measured.number": 162}

Exercise: Would you kindly share the measured IC50 for COc1cc(Oc2ccccc2)ccc1-n1ncc(C(=O)c2cc3ccccc3[nH]2)c1N [Compound I-9] ?
Key: 146

All values here come from patent US9802920B2.
